Some sequences, each annotated with its measured soluble fraction (log2).
- assay details: soluble fraction after stress (log2 fold change); higher = more stays soluble; pooled small domains, quantitative proteomics
- applied conditions: stress: 50 degC
experimental endpoint: soluble fraction (log2)

>>> df
                           residue_sequence    experimental_endpoint    value
0  HMSTQGRRIEILRHLTQTKKKADVNFVELGRTFGTSDTTIRKDLDWLIKNEYWENHGEWKPTQAGLNMI  soluble fraction (log2)   0.0347
1  HMGVLSPRQSQILALVAQGLGNREIAERLHIAPTTARDHVQAIMRRLNVNSRAAAAVMGVKLGLI  soluble fraction (log2)   -0.625
2  HMPDPVHAAYLRLAVLLTEQAIGPQVTEQQIRDRFALTRRQTSDLMGRLIREGIAEKRAGYGWNINTELTA  soluble fraction (log2)   -0.845
3  HMRTMFGQRLRLARKRAGLSMQALADRVTPSVSAQAISKYEADQMMPSSSVLVGLGKALGVSLDFLVGGQ  soluble fraction (log2)   -0.536
4  HMLYEDVQVPNVRYWKSRDAKKQLEDLGLRVLTEHVNDAYIQSDQVIRTSPEIGDTLRTGDTVTLYVSDG  soluble fraction (log2)    0.185
5  HMKASEMKKGQTIKIDGVLYVIVDFQHVKLSKGGAVYQTKLRNLAAGGIRDIRIRAEEVLEDA  soluble fraction (log2)   -0.311
6  HMGQELTPVERTALDIAARDGKVSTRILAQEAGIGLRTASKTLAALAERGLLTWHGTSRRDPQQHYTS  soluble fraction (log2)  0.00201
7  HMDNNFIQSLYPIAIGISKNQLDPWDLINGWVEYYLKNKEKYINHPNLKAVAVLKMKGLLIDHFRKS  soluble fraction (log2)    -3.57
